Test system: bermudagrass (Cynodon dactylon)
Experiment: Test B pre-/postemergence plant response
Assay type: in vivo
Conditions: 8 g ai/ha, postemergence; 0-100 scale
Task for the reader: assign each of the following compounds its reported Bermudagrass plant response rating.
Hey, just send me the number, nothing else.

If you can, please state the reported Bermudagrass plant response rating value of CCCc1cc(-c2ccc(C(F)(F)F)cc2)nn1-c1c(O)cnn(C)c1=O [Compound 72] .
0

Can you check Cc1nn(C)c(=O)c(-c2nc(-c3ccc(Cl)cc3)sc2C)c1O [Compound 79] next?
70

// repeat for COc1nn(C)c(=O)c(-n2nc(-c3ccc(Br)cc3)cc2C)c1O [Compound 82] and report
98

Subsequent entry: Cc1cc(-c2ccc(Cl)cc2)nn1-c1c(OC(=O)CC(C)C)cnn(C)c1=O [Compound 37]
80

Repeat with CCc1cc(-c2ccc(Br)cc2)nn1-c1c(O)c(C)nn(C)c1=O [Compound 74]
20

Another compound to check: Cc1cc(-c2ccc(C(F)(F)F)c(F)c2)nn1-c1c(O)c(C(F)(F)F)nn(C)c1=O [Compound 44]
65

And the next one, CCc1cc(-c2ccc(Br)cc2)nn1-c1c(O)cnn(CC(F)(F)F)c1=O [Compound 73] ?
0
